measuredTarget: endogenous CGRP receptor (Homo sapiens, UniProt O60894+Q16602)
Sequence (Q16602 23-461): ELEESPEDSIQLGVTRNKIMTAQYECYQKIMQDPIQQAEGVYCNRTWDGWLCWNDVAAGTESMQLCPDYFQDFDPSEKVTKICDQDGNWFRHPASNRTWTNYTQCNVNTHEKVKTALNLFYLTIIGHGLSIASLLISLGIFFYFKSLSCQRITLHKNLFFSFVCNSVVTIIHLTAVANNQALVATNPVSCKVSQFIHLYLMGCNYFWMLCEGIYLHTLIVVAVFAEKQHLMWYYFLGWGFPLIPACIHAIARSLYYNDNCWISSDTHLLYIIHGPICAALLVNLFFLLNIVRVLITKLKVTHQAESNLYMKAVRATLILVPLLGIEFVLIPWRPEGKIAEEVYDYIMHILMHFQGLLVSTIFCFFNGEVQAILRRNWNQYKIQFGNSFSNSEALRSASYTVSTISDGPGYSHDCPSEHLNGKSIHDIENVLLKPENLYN
Sequence (O60894 27-148): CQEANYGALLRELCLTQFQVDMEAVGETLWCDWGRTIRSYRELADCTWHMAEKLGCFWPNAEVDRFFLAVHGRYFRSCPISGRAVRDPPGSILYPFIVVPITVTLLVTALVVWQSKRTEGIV
assayExplanation: CGRP functional antagonism using SK-N-MC-BLA (4C10), β-lactamase transcriptional reporter assay
testConditions: SK-N-MC (4C10) cells, inhibition of β-lactamase expression in the presence of 200 pM CGRP
Procedure: Measuring CGRP Functional Antagonism Using SK-N-MC-BLA (4C10): CGRP functional antagonism was characterized in a cell based transcriptional assay using a recombinant SK-N-MC line. […] Single clones were separated using Fluorescent Activated Cell Sorting (FACS) based on CGRP induced β-lactamase activity. β-lactamase activity was measured using a fluorescence energy transfer (FRET) dye, CCF4. […]
pIC50: −log10 of the molar value.
Listing of entries alongside the reported pIC50.

molecule	measuredTarget	pIC50
Cc1ccc(C2SC(CC(=O)N3CCC(N4Cc5ccccc5NC4=O)CC3)C(=O)N2CCC(C)C)cc1C (stereo not shown) [Compound 204]	endogenous CGRP receptor (Homo sapiens, UniProt O60894+Q16602)	5.30 to 6.00
CC(C)(C)CCN1C(=O)[C@H](CC(=O)N2CCC(N3CCc4ccccc4NC3=O)CC2)S[C@@H]1c1cccc(F)c1C1CCNCC1 [Compound 552]	endogenous CGRP receptor (Homo sapiens, UniProt O60894+Q16602)	> 6.00
CC(C)(C)CCN1C(=O)C(CC(=O)N2CCC(n3c(=O)[nH]c4ccccc43)CC2)SC1c1ccccc1N1CCCCC1 (stereo not shown) [Compound 298]	endogenous CGRP receptor (Homo sapiens, UniProt O60894+Q16602)	> 6.00
CC(C)CCN1C(=O)[C@H](CC(=O)N2CCC(N3CCc4ccccc4NC3=O)CC2)SC1c1cccc(F)c1N1CCN(C(C)(C)C)CC1 (stereo partly shown) [Compound 544]	endogenous CGRP receptor (Homo sapiens, UniProt O60894+Q16602)	> 6.00
CC(C)CCN1C(=O)C(CC(=O)N2CCC(n3cc(-c4ccccc4)[nH]c3=O)CC2)SC1c1ccccc1 (stereo not shown) [Compound 110]	endogenous CGRP receptor (Homo sapiens, UniProt O60894+Q16602)	< 5.30

Please fill in: pIC50 reported for Cc1ccccc1C1SC(CC(=O)N2CCC(N3CCc4ccccc4NC3=O)CC2)C(=O)N1CCC(C)C (stereo not shown) [Compound 171] = > 6.00

The molecule listed as CC(=O)Nc1ccc(C2SC(CC(=O)N3CCC(N4Cc5ccccc5NC4=O)CC3)C(=O)N2CCC(C)C)cc1 (stereo not shown) [Compound 213] shows pIC50 equal to 5.30 to 6.00

###

measuredTarget: CGRP receptor (SK-N-MC membrane) (Homo sapiens, UniProt O60894+Q16602)
Construct: Purified SK-N-MC membrane was purchased from Perkin Elmer; purchased Perkin Elmer; host or cells: SK-N-MC membrane
Sequence (Q16602 23-461): as the sequence (Q16602 23-461) above
Sequence (O60894 27-148): as the sequence (O60894 27-148) above
assayExplanation: I125-CGRP binding displacement assay on purified SK-N-MC membrane
endpoint: Ki

compound	Ki
CC(C)(C)CCN1C(=O)[C@H](CC(=O)N2CCC(N3CCc4ccccc4NC3=O)CC2)S[C@@H]1c1ccccc1C1CCNCC1	< 1000 nM
CC(C)(C)CCN1C(=O)[C@H](CC(=O)N2CCC(n3c(=O)[nH]c4ncccc43)CC2)S[C@@H]1c1cccc(F)c1C1CCNCC1	< 1000 nM
Cc1cccc(C2SC(CC(=O)N3CCC(N4Cc5ccccc5NC4=O)CC3)C(=O)N2CCC(C)C)c1 (centres unmarked)	< 1000 nM
CC(C)CCN1C(=O)C(CC(=O)N2CCC(N3Cc4ccccc4NC3=O)CC2)SC1c1cccc(Cl)c1 (centres unmarked)	< 1000 nM
O=C(CC1SC(c2ccccc2)N(CC2CCCCC2)C1=O)N1CCC(N2CCc3ccccc3NC2=O)CC1 (centres unmarked)	< 1000 nM

CC(C)(C)CCN1C(=O)C(CC(=O)N2CCC(N3CCc4ccccc4NC3=O)CC2)SC1c1ccccc1-n1cccn1 (centres unmarked) has a reported Ki of < 1000 nM

Form: compound = COC(=O)[C@@H](CC(C)C)N1C(=O)C(CC(=O)N2CCC(N3CCc4ccccc4NC3=O)CC2)SC1c1ccccc1 (some centres unmarked) ; Ki = < 1000 nM

Recorded result, O=C(CC1SC(c2ccccc2)N(c2ccc3[nH]ncc3c2)C1=O)N1CCC(N2Cc3ccccc3NC2=O)CC1 (centres unmarked) , Ki: 1000 to 5000 nM

Data point: CC(C)(C)CCN1C(=O)[C@H](CC(=O)N2CCC(N3CCc4ccccc4NC3=O)CC2)SC1c1cccc(F)c1N1CCC(F)(F)C1 (some centres unmarked) ; Ki = < 1000 nM

###

measuredTarget: endogenous CGRP receptor (Homo sapiens, UniProt O60894+Q16602)
assayExplanation: CGRP functional antagonism using SK-N-MC-BLA (4C10), β-lactamase transcriptional reporter assay
testConditions: SK-N-MC (4C10) cells, inhibition of β-lactamase expression in the presence of 200 pM CGRP
pIC50: −log10 of the molar value.
# pIC50 per entry

pIC50 recorded for this compound, CN1CCN(c2ccc(F)cc2C2SC(CC(=O)N3CCC(N4CCc5ccccc5NC4=O)CC3)C(=O)N2CCC(C)(C)C)CC1 (stereo not shown) [Compound 352] , is > 6.00

Input CC(C)CCN1C(=O)C(CC(=O)N2CCC(n3cc(-c4ccccc4)[nH]c3=O)CC2)SC1c1ccc(F)c(F)c1 (stereo not shown) [Compound 127] . Output pIC50: 5.30 to 6.00

The reported value for CC(C)CN1C(=O)[C@H](CC(=O)N2CCC(N3CCc4ccccc4NC3=O)CC2)SC1c1cccc(F)c1N1CCN(C(C)(C)C)CC1 (stereo partly shown) [Compound 494] in terms of pIC50 is > 6.00

Reported pIC50 of CN(C)CCCN(C)c1ccccc1C1SC(CC(=O)N2CCC(n3c(=O)[nH]c4ncccc43)CC2)C(=O)N1CCC(C)(C)C (stereo not shown) [Compound 382] : > 6.00

So, CC(=O)N1CC2(CCN(C(=O)CC3SC(c4ccccc4)N(CCC(C)C)C3=O)CC2)c2cc(C(C)C)ccc21 (stereo not shown) [Compound 27] ? Its pIC50 was < 5.30

// sample CC(C)CCN1C(=O)C(CC(=O)N2CCC(N3CCc4ccccc4NC3=O)CC2)SC1c1c(F)cccc1C(F)(F)F (stereo not shown) [Compound 194] , its pIC50 was > 6.00

# pIC50 (compound: O=C(CC1SC(c2ccccc2)N(CC2CCCCC2)C1=O)N1CCC(N2Cc3ccccc3NC2=O)CC1 (stereo not shown) [Compound 264] ) is > 6.00

For reference, reported pIC50 for CC(C)C[C@H](CO)N1C(=O)C(CC(=O)N2CCC(N3Cc4ccccc4NC3=O)CC2)SC1c1ccccc1 (stereo partly shown) [Compound 238] stands at 5.30 to 6.00

###

measuredTarget: endogenous CGRP receptor (Homo sapiens, UniProt O60894+Q16602)
assayExplanation: CGRP functional antagonism using SK-N-MC-BLA (4C10), β-lactamase transcriptional reporter assay
testConditions: SK-N-MC (4C10) cells, inhibition of β-lactamase expression in the presence of 200 pM CGRP
endpoint: IC50

Record CCN1CCN(c2c(F)cccc2C2SC(CC(=O)N3CCC(N4Cc5ccccc5NC4=O)CC3)C(=O)N2CCC(C)(C)C)CC1 (stereo not shown) [Compound 344] . Reported IC50: < 1000 nM

Entry CCCN1C(=O)[C@H](CC(=O)N2CCC(N3CCc4ccccc4NC3=O)CC2)SC1c1cccc(F)c1N1CCN(C(C)(C)C)CC1 (stereo partly shown) [Compound 536] , IC50 reported as < 1000 nM

# IC50 of CN1C(=O)C(CC(=O)N2CCC(N3Cc4ccccc4NC3=O)CC2)SC1c1ccccc1 (stereo not shown) [Compound 273] = 1000 to 5000 nM

Entry CC(C)CCN1C(=O)C(CC(=O)N2CCC(N3Cc4ccccc4NC3=O)CC2)SC1c1ccc(N(C)C)cc1 (stereo not shown) [Compound 124] ; IC50 = 1000 to 5000 nM

Reported IC50 ( COCCN1C(=O)C(CC(=O)N2CCC(N3Cc4ccccc4NC3=O)CC2)SC1c1ccccc1 (stereo not shown) [Compound 30] ) = 1000 to 5000 nM

Notebook: CC(C)(C)CCN1C(=O)C(CC(=O)N2CCC(N3Cc4ccccc4NC3=O)CC2)SC1c1ccccc1N1CCN(c2ccccc2)CC1 (stereo not shown) [Compound 367] , IC50 read as < 1000 nM

Value of measured IC50 for the entry CCN1CCN(c2c(F)cccc2C2SC(CC(=O)N3CCC(N4CCc5ccccc5NC4=O)CC3)C(=O)N2CCC(C)(C)C)CC1 (stereo not shown) [Compound 345] : < 1000 nM

###

// reported IC50 per item
measuredTarget: endogenous CGRP receptor (Homo sapiens, UniProt O60894+Q16602)
assayExplanation: CGRP functional antagonism using SK-N-MC-BLA (4C10), β-lactamase transcriptional reporter assay
testConditions: SK-N-MC (4C10) cells, inhibition of β-lactamase expression in the presence of 200 pM CGRP

Example entries and their recorded answers appear below.
molecule	IC50
CC(C)CCN1C(=O)C(CC(=O)N2CCC(N3Cc4ccccc4NC3=O)CC2)SC1C(C)(C)C (stereo not drawn) [Compound 75]	1000 to 5000 nM
CN1CCN(c2cccc(F)c2C2SC(CC(=O)N3CCC(n4c(=O)[nH]c5ccccc54)CC3)C(=O)N2CCC(C)(C)C)CC1 (stereo not drawn) [Compound 348]	1000 to 5000 nM
CC(C)CCN1C(=O)C(CC(=O)N2CCC(N3CCc4ccccc4NC3=O)CC2)SC1c1c(F)cccc1Cl (stereo not drawn) [Compound 221]	< 1000 nM
CCCN1C(=O)[C@H](CC(=O)N2CCC(N3CCc4ccccc4NC3=O)CC2)SC1c1cccc(F)c1N1CCN(C(C)(C)C)CC1 (stereo partly drawn) [Compound 537]	< 1000 nM
CC(C)CCN1C(=O)C(CC(=O)N2CCC(N3Cc4ccccc4NC3=O)CC2)SC1c1ccc(F)c(F)c1 (stereo not drawn) [Compound 202]	< 1000 nM
CC(C)CCN1C(=O)C(CC(=O)N2CCC(N3CCc4ccccc4NC3=O)CC2)SC1c1ccccc1 (stereo not drawn) [Compound 78]	< 1000 nM
COCCN1C(=O)[C@H](CC(=O)N2CCC(n3c(=O)[nH]c4ncccc43)CC2)SC1c1cccc(F)c1N1CCN(C(C)(C)C)CC1 (stereo partly drawn) [Compound 535]	< 1000 nM
CN(C)[C@@H]1CCN(c2ccccc2C2SC(CC(=O)N3CCC(N4CCc5ccccc5NC4=O)CC3)C(=O)N2CCC(C)(C)C)C1 (stereo partly drawn) [Compound 405]	1000 to 5000 nM

Value sought: IC50, system endogenous CGRP receptor (Homo sapiens, UniProt O60894+Q16602), item CC(C)OCCN1C(=O)[C@H](CC(=O)N2CCC(n3c(=O)[nH]c4ncccc43)CC2)SC1c1cccc(F)c1N1CCN(C(C)(C)C)CC1 (stereo partly drawn) [Compound 530] . Result: < 1000 nM

I looked up CCCN1C(=O)C(CC(=O)N2CCC(N3CCc4ccccc4NC3=O)CC2)SC1c1ccccc1 (stereo not drawn) [Compound 38] and its IC50 for endogenous CGRP receptor (Homo sapiens, UniProt O60894+Q16602) was < 1000 nM

So the reported IC50 for COc1ccc(C2SC(CC(=O)N3CCC(n4cc(-c5ccccc5)[nH]c4=O)CC3)C(=O)N2CCC(C)C)cc1 (stereo not drawn) [Compound 286] , on endogenous CGRP receptor (Homo sapiens, UniProt O60894+Q16602), turned out to be 1000 to 5000 nM

Measured IC50 for this entry CC(C)CN1C(=O)[C@H](CC(=O)N2CCC(N3CCc4ccccc4NC3=O)CC2)SC1c1cccc(F)c1N1CCN(C(C)(C)C)CC1 (stereo partly drawn) [Compound 493] on endogenous CGRP receptor (Homo sapiens, UniProt O60894+Q16602): < 1000 nM

Observed IC50 on endogenous CGRP receptor (Homo sapiens, UniProt O60894+Q16602), entry CN(c1ccccc1C1SC(CC(=O)N2CCC(N3CCc4ccccc4NC3=O)CC2)C(=O)N1CCC(C)(C)C)[C@H]1CCN(Cc2ccccc2)C1 (stereo partly drawn) [Compound 403] , equals 1000 to 5000 nM

The reported measurements were obtained from patent US8163737B2.
